Tested on: DMS-114 complex spheroids with HUVEC/MSC, growth % test/control
method-summary: Anticancer human tumor DMS-114 cell line growth inhibition [AhR];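 also: spheroids exposed to agents for 7 days before readout; 100% = DMSO vehicle control wells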
experimental-conditions: second compound 10 µM; first compound 0.0316 µM; hits give low values
recorded-endpoint: viability, T/C (%)

- CC1COCCN1c1cc(-c2ccnn2C)c2ccnc(-c3ccn[nH]3)c2n1 (stereo unspecified) + Cc1ccccc1N=Nc1ccc(NC(=O)c2ccnn2C)c(C)c1: 89.1
- COc1cc(Nc2ncc3c(n2)-c2ccc(Cl)cc2C(c2c(F)cccc2OC)=NC3)ccc1C(=O)O + Cc1cncc(-c2nc(NCCc3c[nH]c4ccccc34)c3ncn(C(C)C)c3n2)c1: 16.4
- COc1ccc([C@@H](O)c2cc(-c3ncnc4cc(N5CCOCC5)ccc34)c(F)cc2Cl)nn1 + CC(CO)NC(=O)c1cc(-c2ccc(Cl)cc2)nn(-c2cnn(C)c2)c1=O: 104
- NS(=O)(=O)OCC1CC(n2ccc3c(NC4CCc5ccccc54)ncnc32)CC1O (stereo unspecified) + Cc1ccccc1N=Nc1ccc(NC(=O)c2ccnn2C)c(C)c1: 86.5
- COc1cccc2c1C(=O)c1c(O)c3c(c(O)c1C2=O)CC(O)(C(=O)CO)CC3OC1CC(N)C(O)C(C)O1 (stereo unspecified) + Cc1ccccc1N=Nc1ccc(NC(=O)c2ccnn2C)c(C)c1: 68.7
- NS(=O)(=O)OCC1CC(n2ccc3c(NC4CCc5ccccc54)ncnc32)CC1O (stereo unspecified) + Cc1cncc(-c2nc(NCCc3c[nH]c4ccccc34)c3ncn(C(C)C)c3n2)c1: 42.2

---

System: DMS-114 complex spheroids with HUVEC/MSC, growth % test/control
method-summary: Anticancer human tumor DMS-114 cell line growth inhibition [AhR]; active = viability on the fitted dose curve at most 10% of control; inactive = the rest;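 also: spheroids exposed to agents for 7 days before readout; 100% = DMSO vehicle control wells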
experimental-conditions: second compound 1 µM; first compound 0.0316 µM
Classes used: active, inactive

- CC1COCCN1c1cc(-c2ccnn2C)c2ccnc(-c3ccn[nH]3)c2n1 (stereo unspecified) + Cc1ccccc1N=Nc1ccc(NC(=O)c2ccnn2C)c(C)c1: inactive
- Nc1ccn(C2OC(CO)C(O)C2(F)F)c(=O)n1 (stereo unspecified) + Cc1cncc(-c2nc(NCCc3c[nH]c4ccccc34)c3ncn(C(C)C)c3n2)c1: active
- CC[C@@]1(O)C(=O)OCc2c1cc1n(c2=O)Cc2cc3c(CN(C)C)c(O)ccc3nc2-1 + Cc1ccccc1N=Nc1ccc(NC(=O)c2ccnn2C)c(C)c1: inactive
- CC(C)c1c(-c2ccccc2)nc2c(C#N)c[nH]n2c1=O + Cc1ccccc1N=Nc1ccc(NC(=O)c2ccnn2C)c(C)c1: inactive
- COc1cc(Nc2ncc3c(n2)-c2ccc(Cl)cc2C(c2c(F)cccc2OC)=NC3)ccc1C(=O)O + CC(CO)NC(=O)c1cc(-c2ccc(Cl)cc2)nn(-c2cnn(C)c2)c1=O: inactive
- Cn1ncnc1C1c2n[nH]c(=O)c3cc(F)cc(c23)NC1c1ccc(F)cc1 (stereo unspecified) + CC(CO)NC(=O)c1cc(-c2ccc(Cl)cc2)nn(-c2cnn(C)c2)c1=O: inactive
- CC1COCCN1c1cc(C2(S(C)(=N)=O)CC2)nc(-c2ccnc3[nH]ccc23)n1 (stereo unspecified) + CC(CO)NC(=O)c1cc(-c2ccc(Cl)cc2)nn(-c2cnn(C)c2)c1=O: inactive
- CC1(C)CCC(CN2CCN(c3ccc(C(=O)NS(=O)(=O)c4ccc(NCC5CCOCC5)c([N+](=O)[O-])c4)c(Oc4cnc5[nH]ccc5c4)c3)CC2)=C(c2ccc(Cl)cc2)C1 + CC(CO)NC(=O)c1cc(-c2ccc(Cl)cc2)nn(-c2cnn(C)c2)c1=O: inactive
- CC[C@@]1(O)C(=O)OCc2c1cc1n(c2=O)Cc2cc3c(CN(C)C)c(O)ccc3nc2-1 + Cc1cncc(-c2nc(NCCc3c[nH]c4ccccc34)c3ncn(C(C)C)c3n2)c1: inactive
- NS(=O)(=O)OCC1CC(n2ccc3c(NC4CCc5ccccc54)ncnc32)CC1O (stereo unspecified) + Cc1cncc(-c2nc(NCCc3c[nH]c4ccccc34)c3ncn(C(C)C)c3n2)c1: inactive
- CC1COCCN1c1cc(-c2ccnn2C)c2ccnc(-c3ccn[nH]3)c2n1 (stereo unspecified) + CC(CO)NC(=O)c1cc(-c2ccc(Cl)cc2)nn(-c2cnn(C)c2)c1=O: inactive
